biological target: human β2 adrenergic receptor (Homo sapiens); test: Whole-cell cAMP Flashplate assay using CHO-K1 cells stably expressing human β2 adrenergic receptor; details: cAMP production
Structures can show the parent of a compound that is named as a salt.
REPORTED_ENDPOINT: EC50 (nM)
# value in nM; strip the unit string

{"COMPOUND": "C[N+]1(C)[C@@H]2CC(OC(=O)Nc3cc(CCC(=O)Nc4ccc(CNC[C@H](O)c5ccc(O)c6[nH]c(=O)ccc56)cc4Cl)ccc3-c3ccccc3)C[C@H]1[C@@H]1O[C@@H]12 (some centres unmarked) [Example 44]", "EC50 (nM)": 1.7}
{"COMPOUND": "C[N+]1(CCOc2ccccc2)CCC(OC(=O)Nc2cc(CCC(=O)Nc3ccc(CNC[C@H](O)c4ccc(O)c5[nH]c(=O)ccc45)cc3)ccc2-c2ccccc2)CC1 (some centres unmarked) [Example 57]", "EC50 (nM)": 2.7}
{"COMPOUND": "C[N+]1(C)[C@@H]2C[C@@H](OC(=O)Nc3cc(CCCC(=O)Nc4ccc(CNC[C@H](O)c5ccc(O)c6[nH]c(=O)ccc56)cc4)ccc3-c3ccccc3)C[C@H]1[C@@H]1O[C@@H]12 [Example 33]", "EC50 (nM)": 4.6}
{"COMPOUND": "COc1cc(CNC[C@H](O)c2ccc(O)c3[nH]c(=O)ccc23)ccc1NC(=O)CCCc1ccc(-c2ccccc2)c(NC(=O)OC2CC[N+](C)(C)CC2)c1 [Example 21, trifluoroacetate]", "EC50 (nM)": 3.8}

Looking for the measured EC50 of COc1cc(NC(=O)CCCc2ccc(-c3ccccc3)c(NC(=O)O[C@@H]3C[C@@H]4[C@H]5O[C@H]5[C@H](C3)[N+]4(C)C)c2)c(Cl)cc1CNC[C@H](O)c1ccc(O)c2[nH]c(=O)ccc12 [Example 34] , can you help? 1.2

====

The entries below come with measured pEC50 values attached.
target: human β2 adrenergic receptor (Homo sapiens, UniProt P07550); test: Whole-cell cAMP Flashplate assay using CHO-K1 cells stably expressing human β2 adrenergic receptor; details: cAMP production
Sequence (P07550 whole entry): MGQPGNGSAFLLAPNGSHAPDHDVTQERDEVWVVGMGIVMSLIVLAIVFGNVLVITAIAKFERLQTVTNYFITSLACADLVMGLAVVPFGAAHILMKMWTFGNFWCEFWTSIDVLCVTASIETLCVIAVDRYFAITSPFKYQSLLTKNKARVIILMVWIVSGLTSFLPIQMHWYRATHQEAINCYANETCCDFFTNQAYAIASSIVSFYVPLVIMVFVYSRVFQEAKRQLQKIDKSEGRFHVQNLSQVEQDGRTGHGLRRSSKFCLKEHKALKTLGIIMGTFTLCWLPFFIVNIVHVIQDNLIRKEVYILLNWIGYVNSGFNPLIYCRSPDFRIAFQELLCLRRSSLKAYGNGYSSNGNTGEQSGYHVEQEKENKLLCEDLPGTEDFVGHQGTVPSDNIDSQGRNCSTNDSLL
Structures can show the parent of a compound that is named as a salt.
Units for pEC50: none; it is -log10 of a concentration expressed in mol/L.

# example entries with known answers
{"COMPOUND": "C[N+]1(C)CCC(OC(=O)Nc2cc(OCC(=O)Nc3ccc(CNC[C@H](O)c4ccc(O)c5[nH]c(=O)ccc45)cc3)ccc2-c2ccccc2)CC1", "pEC50": 7.42}
{"COMPOUND": "Cc1cc(CNC[C@H](O)c2ccc(O)c3[nH]c(=O)ccc23)ccc1NC(=O)CCc1ccc(-c2ccccc2)c(NC(=O)OC2C[C@@H]3[C@H]4O[C@H]4[C@H](C2)[N+]3(C)C)c1 (stereo partly shown)", "pEC50": 8.52}

Quick one: pEC50 for C[N+]1(C)CCC(OC(=O)Nc2cc(CCC(=O)Nc3ccc(CNC[C@H](O)c4ccc(O)c5[nH]c(=O)ccc45)cc3)ccc2-c2ccccc2)CC1 [Example 1, trifluoroacetate] ? 8.89

Can you share its pEC50? I mean this compound: C[N+]1(C)CCC(OC(=O)Nc2ccc(CCC(=O)Nc3ccc(CNC[C@H](O)c4ccc(O)c5[nH]c(=O)ccc45)cc3)cc2-c2ccccc2)CC1 [Example 69, trifluoroacetate] 7.80

Query (compound): C[N+]1(C)CCC(OC(=O)Nc2cc(CCCC(=O)Nc3ccc(CNC[C@H](O)c4ccc(O)c5[nH]c(=O)ccc45)c(Cl)c3)ccc2-c2ccccc2)CC1 [Example 29, trifluoroacetate] ; field requested: pEC50 8.32

Fill in: pEC50 of COc1cc(NC(=O)CCCc2ccc(-c3ccccc3)c(NC(=O)OC3CC[N+](C)(C)CC3)c2)ccc1CNC[C@H](O)c1ccc(O)c2[nH]c(=O)ccc12 [Example 20, trifluoroacetate] is ___ 8.59

Quick one: pEC50 of C[N+]1(C)CCC(OC(=O)Nc2ccc(CCCC(=O)Nc3ccc(CNC[C@H](O)c4ccc(O)c5[nH]c(=O)ccc45)cc3)cc2-c2ccccc2)CC1 [Example 54, trifluoroacetate] ? 9.05

Given C[N+]1(C)[C@@H]2CC(OC(=O)Nc3cc(CCCC(=O)Nc4ccc5cc(CNC[C@H](O)c6ccc(O)c7[nH]c(=O)ccc67)ccc5c4)ccc3-c3ccccc3)C[C@H]1[C@@H]1O[C@@H]12 (stereo partly shown) , state its recorded pEC50. 8.57

Any idea what pEC50 was measured for COc1cc(CNC[C@H](O)c2ccc(O)c3[nH]c(=O)ccc23)ccc1NC(=O)CCCc1ccc(-c2ccccc2)c(NC(=O)OC2C[C@@H]3[C@H]4O[C@H]4[C@H](C2)[N+]3(C)C)c1 (stereo partly shown) ? 7.97

Record request: pEC50 value, item C[N+]1(C)CCC(OC(=O)Nc2cc(OCCCCCCCCCNC[C@H](O)c3ccc(O)c4[nH]c(=O)ccc34)ccc2-c2ccccc2)CC1 [Example 60, trifluoroacetate] 8.92

====

Item-by-item account of pIC50
molecular target: human M3 muscarinic receptor (Homo sapiens, UniProt P20309); construct: expressed in transfected cells; host or cells: CHO-K1; test: Inhibitory effect on methacholine-induced calcium influx, FLIPR assay, CHO-K1 cells stably expressing the human M3 muscarinic receptor; format: cell-based; settings: inhibition of calcium influx induced by methacholine
Sequence (P20309 whole entry): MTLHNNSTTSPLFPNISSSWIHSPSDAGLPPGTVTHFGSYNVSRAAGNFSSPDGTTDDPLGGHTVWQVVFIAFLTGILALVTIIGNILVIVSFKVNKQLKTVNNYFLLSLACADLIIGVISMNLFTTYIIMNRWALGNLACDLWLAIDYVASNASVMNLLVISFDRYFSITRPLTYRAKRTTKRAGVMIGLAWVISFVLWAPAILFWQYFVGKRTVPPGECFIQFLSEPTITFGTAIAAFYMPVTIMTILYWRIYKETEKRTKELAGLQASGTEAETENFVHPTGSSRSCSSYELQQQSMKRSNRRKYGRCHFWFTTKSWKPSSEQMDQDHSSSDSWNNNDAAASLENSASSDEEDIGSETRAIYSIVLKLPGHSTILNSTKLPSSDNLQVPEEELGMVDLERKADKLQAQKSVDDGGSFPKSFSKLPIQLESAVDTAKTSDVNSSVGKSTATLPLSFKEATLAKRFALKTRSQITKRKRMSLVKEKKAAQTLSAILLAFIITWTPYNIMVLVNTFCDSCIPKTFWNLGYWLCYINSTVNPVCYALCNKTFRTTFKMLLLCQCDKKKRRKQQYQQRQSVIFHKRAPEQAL
Structures can show the parent of a compound that is named as a salt.
When answering, recall that pIC50 equals minus log10 of the concentration in mol/L, and write that number alone.

{"MOLECULE": "C[N+]1(C)CCC(OC(=O)Nc2cc(OCCCCCCCCNC[C@H](O)c3ccc(O)c4[nH]c(=O)ccc34)ccc2-c2ccccc2)CC1 [Example 58, trifluoroacetate]", "pIC50": 7.33}

Could you now consider this next molecule?
// query pIC50 value for entry `COc1cc(NC(=O)CCc2ccc(-c3ccccc3)c(NC(=O)O[C@@H]3C[C@@H]4[C@H]5O[C@H]5[C@H](C3)[N+]4(C)C)c2)c(Cl)cc1CNC[C@H](O)c1ccc(O)c2[nH]c(=O)ccc12` 7.78

====

biological target: human M3 muscarinic receptor (Homo sapiens, UniProt P20309); construct: expressed in transfected cells; host or cells: CHO-K1; assay: Inhibitory effect on methacholine-induced calcium influx, FLIPR assay, CHO-K1 cells stably expressing the human M3 muscarinic receptor; assay type: cell-based; conditions: inhibition of calcium influx induced by methacholine
Where a name gives a salt, the structure may show the parent alone.
Reported IC50 is given for each of the following compounds.
# number only, unit nM dropped from output

Observed IC50 on human M3 muscarinic receptor (Homo sapiens, UniProt P20309) for C[N+]1(C)CCC(OC(=O)Nc2cc(CCC(=O)Nc3ccc(CNC[C@H](O)c4ccc(O)c5[nH]c(=O)ccc45)cn3)ccc2-c2ccccc2)CC1 [Example 17, trifluoroacetate] , please. 11.4

Give human M3 muscarinic receptor (Homo sapiens, UniProt P20309) IC50 for C[N+]1(C)CCC(OC(=O)Nc2cc(CCC(=O)Nc3ccc(CCCNC[C@H](O)c4ccc(O)c5[nH]c(=O)ccc45)cc3)ccc2-c2ccccc2)CC1 [Example 62, trifluoroacetate] 51.3

Request - read-out IC50 | tested on human M3 muscarinic receptor (Homo sapiens, UniProt P20309) | compound `COc1cc(NC(=O)CCCc2ccc(-c3ccccc3)c(NC(=O)O[C@@H]3C[C@@H]4[C@H]5O[C@H]5[C@H](C3)[N+]4(C)C)c2)c(Cl)cc1CNC[C@H](O)c1ccc(O)c2[nH]c(=O)ccc12` 22

====

target: human M3 muscarinic receptor (Homo sapiens); construct: expressed in transfected cells; host or cells: CHO-K1; experiment: Competition binding assays to human M3 muscarinic receptor ([3H]-NMS displacement, membrane fractions); conditions: competition with 1 nM [3H]-NMS
pIC50: −log10 of the molar value. Structures can show the parent of a compound that is named as a salt.
REPORTED_ENDPOINT: pIC50

{"COMPOUND": "COc1cc(NC(=O)CCCCc2ccc(-c3ccccc3)c(NC(=O)OC3CC[N+](C)(C)CC3)c2)c(Cl)cc1CNC[C@H](O)c1ccc(O)c2[nH]c(=O)ccc12 [Example 51, trifluoroacetate]", "READING": "> 8.00"}

With those in mind, consider the next compound.
I am curious: what pIC50 value has been reported for C[N+]1(C)CCC(OC(=O)Nc2cc(CCC(=O)Nc3ccc(CNC[C@H](O)c4ccc(O)c5[nH]c(=O)ccc45)cc3)ccc2-c2ccccc2)CC1 [Example 1, trifluoroacetate] ? > 8.00

====

Documented EC50 across a set of compounds
target: human β2 adrenergic receptor (Homo sapiens, UniProt P07550); assay: Whole-cell cAMP Flashplate assay using CHO-K1 cells stably expressing human β2 adrenergic receptor; details: cAMP production
Where a name gives a salt, the structure may show the parent alone.
Give a bare numeral; the unit nM is implied.

Some compounds with known EC50 results, for comparison:
{"COMPOUND": "C[N+]1(C)[C@@H]2CC(OC(=O)Nc3cc(CCC(=O)Nc4ccc5cc(CNC[C@H](O)c6ccc(O)c7[nH]c(=O)ccc67)ccc5c4)ccc3-c3ccccc3)C[C@H]1[C@@H]1O[C@@H]12 (some centres unmarked)", "READING_UNIT": "nM", "EC50": 3.4}
{"COMPOUND": "C[N+]1(C)CCC(OC(=O)Nc2cc(CCC(=O)Nc3ccc(CNC[C@H](O)c4ccc(O)c5[nH]c(=O)ccc45)cc3F)ccc2-c2ccccc2)CC1", "READING_UNIT": "nM", "EC50": 4.1}
{"COMPOUND": "COc1cc(NC(=O)CCCc2ccc(-c3ccccc3)c(NC(=O)O[C@@H]3C[C@@H]4[C@H]5O[C@H]5[C@H](C3)[N+]4(C)C)c2)ccc1CNC[C@H](O)c1ccc(O)c2[nH]c(=O)ccc12", "READING_UNIT": "nM", "EC50": 4.3}
{"COMPOUND": "C[N+]1(C)CCC(OC(=O)Nc2cc(CCCC(=O)Nc3ccc(CNC[C@H](O)c4ccc(O)c5[nH]c(=O)ccc45)cc3Cl)ccc2-c2ccccc2)CC1 [Example 19, trifluoroacetate]", "READING_UNIT": "nM", "EC50": 1.2}

Quick check: EC50 of C[N+]1(C)CCC(OC(=O)Nc2cc(CCC(=O)Nc3ccc4cc(CNC[C@H](O)c5ccc(O)c6[nH]c(=O)ccc56)ccc4c3)ccc2-c2ccccc2)CC1 [Example 12, trifluoroacetate] ? 4.6
